- Test system: muscarinic binding sites
- Set-up: species or system chick
Give measured nH, phenomenological cooperativity model (Hill coefficient) for each item. Keep answers brief.
Numbers only.

Worked set:
{"COMPOUND": "O=C1CC[C@](c2ccccc2)(C2CCN(Cc3ccccc3)CC2)C(=O)N1 [Levetimide, levetimide]", "NUMBER": 0.76}
{"COMPOUND": "O=C1CC[C@@](c2ccccc2)(C2CCN(Cc3ccccc3)CC2)C(=O)N1 [Dexetimide, dexetimide]", "NUMBER": 0.63}

Turning to the following compound.
Query: // nH, phenomenological cooperativity model (Hill coefficient) lookup, key: `O=C1CCCN1CC#CCN1CCCC1`
Result: 0.95
